biological target: T1, full length recombinant human 2N4R tau (human, UniProt P10636 1-758); test: SPR SCK, IgG on Protein A, tau in flow
T1 construct: bought from rPeptide; pHrodo Red maleimide-labelled where it stands in uptake assays; also called tau1-441; full length tau
T1 sequence (P10636 other isoform, or with tags, fused parts or gaps limits assumed): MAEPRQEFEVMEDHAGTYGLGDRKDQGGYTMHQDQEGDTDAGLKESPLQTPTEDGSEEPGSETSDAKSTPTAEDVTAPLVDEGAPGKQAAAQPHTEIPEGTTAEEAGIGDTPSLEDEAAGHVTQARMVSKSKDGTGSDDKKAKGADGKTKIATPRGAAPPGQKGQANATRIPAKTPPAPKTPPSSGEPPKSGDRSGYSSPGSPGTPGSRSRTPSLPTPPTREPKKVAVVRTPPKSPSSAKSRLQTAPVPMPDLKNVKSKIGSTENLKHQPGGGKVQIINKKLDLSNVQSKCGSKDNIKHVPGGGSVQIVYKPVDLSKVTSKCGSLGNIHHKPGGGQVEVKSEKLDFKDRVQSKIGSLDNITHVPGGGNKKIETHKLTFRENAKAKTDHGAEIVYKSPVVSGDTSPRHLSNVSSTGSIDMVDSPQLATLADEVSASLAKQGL
Quick reference for pKd among some binders
To interpret pKd, take it as minus log10 of a concentration measured in moles per litre.

Worked set:
#44 VH2VK1 humanised hIgG1 (antibody, V domains shown, also called VH2Vκ1) VH: QSVQESGPGLVKPSETLSLTCTVSGIDLSSYAMAWVRQAPGKGLEWIGCIDRRGGTFYASWVKGRFTISKTSTTVDLQMTSLTAEDTATYFCARDSGAFDPWGQGTLVTVSS VL: QIVMTQSPSSLSASVGDRVTITCQASQSVYDNYLAWYQQKPGQPPKLLIHAASNLASRVPSRFKGSGSGTEFTLTISSLQCDDFATYYCLGEFSCTTTDCNVFGGGTEVVIK; 8.10
#44 VH4VK2 humanised hIgG1 (antibody, V domains shown, also called VH4Vκ2; Clone VH4VK2 (C)) VH: QVQLQESGPGLVKPSETLSLTCTVSGIDLSSYAMAWVRQAPGKGLEWIGCIDRRGGTFYASWVKGRFTISKDTSKTTVDLQMTSLTAEDTATYFCARDSGAFDPWGQGTLVTVSS VL: QIVMTQSPSSLSASVGDRVTITCQASQSVYDNYLAWYQQKPGQPPKLLIHAASNLASGVPSRFKGSGSGTEFTLTISSLQPDDFATYYCLGEFSCTTTDCNVFGGGTKVEIK; 8.16

Task: Need pKd of #44 VH1VK3 humanised hIgG1 (antibody, V domains shown, also called VH1Vκ3) VH: QSVQESGGGLVKPSETLSLTCTVSGIDLSSYAMAWVRQAPGKGLEWIGCIDRRGGTFYASWVKGRFTISKTSTTVDLKMTSLTAEDTATYFCARDSGAFDPWGQGTLVTVSS VL: DIQMTQSPSSLSASVGDRVTITCQASQSVYDNYLAWYQQKPGQPPKLLIHAASNLASGVPSRFKGSGSGTEFTLTISSLQPDDFATYYCLGEFSCTTTDCNVFGGGTKVEIK , thanks.
Result: 8.30

Task: What about this binder? #44 VH0VK0 chimeric human IgG1 (antibody, V domains shown, rabbit VH and VK on human IgG1; also called VH0Vκ0; Clone #44 hIgG1) VH: QSVEESGGRLVTPGTPLTLTCTVSGIDLSSYAMAWVRQAPGKGLEWIGCIDRRGGTFYASWVKGRFTISKTSTTVDLKMTSLTTEDTATYFCARDSGAFDPWGPGTLVTVSS VL: QIVMTQTPSSVSAAVGGTVTIKCQASQSVYDNYLAWYQQKPGQPPKLLIHAASNLASRVPSRFKGSGSGTQFTLTISDVQCDDAATYYCLGEFSCTTTDCNVFGGGTEVVVK
Result: 8.42

Task: # repeat for #44 VH1VK1 humanised hIgG1 (antibody, V domains shown, also called VH1Vκ1) VH: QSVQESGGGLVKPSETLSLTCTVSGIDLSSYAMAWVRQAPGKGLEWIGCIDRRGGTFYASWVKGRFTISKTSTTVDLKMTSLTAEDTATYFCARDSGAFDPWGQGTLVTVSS VL: QIVMTQSPSSLSASVGDRVTITCQASQSVYDNYLAWYQQKPGQPPKLLIHAASNLASRVPSRFKGSGSGTEFTLTISSLQCDDFATYYCLGEFSCTTTDCNVFGGGTEVVIK
Result: 8.50
